System: Saccharomyces cerevisiae BY4741 SeMeCo community
Assay: z-score of subpopulation abundance vs DMSO median, subpopulation auxotrophic for HU; higher = larger share of this subpopulation than in DMSO controls
Settings: 10 µM; 24 h; SM minimal medium; subpopulation (auxotrophy): HU
Label scheme for z-score of subpopulation abundance: lower than 0.07 is class 0, 0.07 and above is class 1.

The examples below pair each entry with its known result.
>  <Molecule>
Oc1cccc(O)c1

>  <Discrete label>
class 0

$$$$
>  <Molecule>
CCOC(=O)C1=C(COCCN)NC(C)=C(C(=O)OC)C1c1ccccc1Cl (stereo unspecified) [Amlodipine Besylate]

>  <Discrete label>
class 0

$$$$
>  <Molecule>
COC(=O)Nc1nc2cc(C(=O)c3ccc(F)cc3)ccc2[nH]1

>  <Discrete label>
class 1

$$$$
>  <Molecule>
CO/N=C(\C(=O)N[C@@H]1C(=O)N2C(C(=O)OC(C)OC(C)=O)=C(COC(N)=O)CS[C@H]12)c1ccco1 (stereo partly specified)

>  <Discrete label>
class 1

$$$$

--- query ---
Dear colleague, could you confirm whether Cc1c(Nc2ncccc2C(=O)O)cccc1C(F)(F)F has z-score of subpopulation abundance at or above 0.07?
class 0
